Catalogue of compounds with associated IC50
Test system: bovine aortic endothelial (BAE) cells
experimentalProtocol: BAE cell proliferation ([methyl-3H]-thymidine incorporation)
Type: cell-based
assayContext: Table 6; PGPH-directed inhibitors
observedProperty: IC50

compound | valueMeasured
CC(C)C[C@H](NC(=O)[C@H](Cc1ccccc1)NC(=O)[C@@H]1CCCN1C(=O)c1cnccn1)C(=O)C1(C)CO1 (some centres unmarked) | 400 nM
CC(C)C[C@H](NC(=O)[C@H](Cc1ccccc1)NC(=O)[C@@H]1CCCN1C(=O)c1ccc(N(C)C)cc1)C(=O)[C@@]1(C)CO1 | 400 nM
CC(=O)NCC(=O)N1CCC[C@H]1C(=O)N[C@@H](Cc1ccccc1)C(=O)N[C@@H](CC(C)C)C(=O)C1(C)CO1 (some centres unmarked) | 58000 nM
CCCC[C@H](NC(C)=O)C(=O)N1CCC[C@H]1C(=O)N[C@@H](Cc1ccccc1)C(=O)N[C@@H](CC(C)C)C(=O)[C@@]1(C)CO1 | 53000 nM
CC(C)CCCCC(=O)N1CCC[C@H]1C(=O)N[C@@H](Cc1ccccc1)C(=O)N[C@@H](CC(C)C)C(=O)[C@@]1(C)CO1 | 600 nM
